- assay_target: hTLR9 (Homo sapiens)
- Sequence (Q9NR96 26-1032): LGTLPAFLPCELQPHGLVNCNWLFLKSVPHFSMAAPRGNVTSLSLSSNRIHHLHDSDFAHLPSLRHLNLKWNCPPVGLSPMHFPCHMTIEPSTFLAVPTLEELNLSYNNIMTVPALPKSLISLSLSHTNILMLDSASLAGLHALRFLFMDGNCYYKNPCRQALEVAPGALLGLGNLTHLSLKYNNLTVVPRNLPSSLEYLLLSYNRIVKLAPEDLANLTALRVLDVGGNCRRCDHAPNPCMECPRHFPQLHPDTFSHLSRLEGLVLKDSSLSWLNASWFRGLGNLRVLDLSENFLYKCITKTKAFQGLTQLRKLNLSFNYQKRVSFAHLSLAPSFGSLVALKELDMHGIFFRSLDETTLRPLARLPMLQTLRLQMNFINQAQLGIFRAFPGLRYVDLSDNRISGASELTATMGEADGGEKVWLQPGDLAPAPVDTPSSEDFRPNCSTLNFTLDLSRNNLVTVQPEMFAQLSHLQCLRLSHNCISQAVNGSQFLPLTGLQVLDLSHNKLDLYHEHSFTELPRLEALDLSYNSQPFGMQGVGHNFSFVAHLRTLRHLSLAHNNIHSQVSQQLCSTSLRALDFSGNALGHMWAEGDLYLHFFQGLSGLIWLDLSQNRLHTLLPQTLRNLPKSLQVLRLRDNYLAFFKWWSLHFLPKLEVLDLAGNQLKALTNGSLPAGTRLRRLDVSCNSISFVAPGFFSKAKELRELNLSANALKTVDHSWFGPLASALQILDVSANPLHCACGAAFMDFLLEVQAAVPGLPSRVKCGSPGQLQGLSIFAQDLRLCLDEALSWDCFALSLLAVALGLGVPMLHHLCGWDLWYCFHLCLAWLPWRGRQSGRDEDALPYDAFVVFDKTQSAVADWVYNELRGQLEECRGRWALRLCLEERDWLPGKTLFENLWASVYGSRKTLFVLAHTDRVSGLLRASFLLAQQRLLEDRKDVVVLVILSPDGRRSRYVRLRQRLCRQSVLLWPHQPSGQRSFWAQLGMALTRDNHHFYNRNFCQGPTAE
- test_protocol: HEK293-Blue-hTLR-9 cells assay (SEAP reporter, ODN2006 stimulation)
- Type: cell-based
- Parameters: host or cells: HEK293 (HEK-Blue hTLR9)
- measurement_setup: HEK293-Blue-hTLR9 cells, ODN2006, 20 hrs; read-out: HEK/hTLR9 IC50
reported_property: IC50 (nM)
Record the value in nM, omitting the unit from your answer.

Req: Data request, read-out IC50, for Cc1ccc(N2C[C@H](CN3CCN(c4ccnc(N5CCNCC5)n4)CC3)O[C@H](C)C2)c2nccnc12 [Example 117]
Resp: 109

Req: Data request, read-out IC50, for Cc1cc(N2CCN(C[C@H]3CN(c4ccc(C#N)c5ncccc45)C[C@@H](C)O3)CC2)nc(N2C[C@@H](N)[C@@H](F)C2)n1 [Example 55]
Resp: 32

Req: Data request, read-out IC50, for COC1CNC[C@H]1Nc1cccc(N2CCN(C[C@H]3CN(c4ccc(C#N)c5ncccc45)C[C@@H](C)O3)CC2)n1 (stereo in doubt) [Example 39]
Resp: 104

Req: Data request, read-out IC50, for CO[C@H]1CN(c2nccc(N3CCN(C[C@H]4CN(c5ccc(C#N)c6nccnc56)C[C@@H](C)O4)CC3)n2)C[C@@H]1N [Example 99]
Resp: 63

Req: Data request, read-out IC50, for C[C@@H]1CN(c2ccc(C#N)c3nccnc23)C[C@H](CN2CCN(c3ccnc(N4C[C@@H](N)[C@@H](F)C4)n3)CC2)O1 [Example 108]
Resp: 68

Req: Data request, read-out IC50, for C[C@@H]1CN(c2ccc(C#N)n3ncc(F)c23)C[C@H](CN2CCN(c3ccc(C[C@@H]4CNCCO4)cc3)CC2)O1 [Example 186]
Resp: 124

---

- assay_target: human TLR8 (Homo sapiens, UniProt Q9NR97)
- Sequence (Q9NR97 27-1041): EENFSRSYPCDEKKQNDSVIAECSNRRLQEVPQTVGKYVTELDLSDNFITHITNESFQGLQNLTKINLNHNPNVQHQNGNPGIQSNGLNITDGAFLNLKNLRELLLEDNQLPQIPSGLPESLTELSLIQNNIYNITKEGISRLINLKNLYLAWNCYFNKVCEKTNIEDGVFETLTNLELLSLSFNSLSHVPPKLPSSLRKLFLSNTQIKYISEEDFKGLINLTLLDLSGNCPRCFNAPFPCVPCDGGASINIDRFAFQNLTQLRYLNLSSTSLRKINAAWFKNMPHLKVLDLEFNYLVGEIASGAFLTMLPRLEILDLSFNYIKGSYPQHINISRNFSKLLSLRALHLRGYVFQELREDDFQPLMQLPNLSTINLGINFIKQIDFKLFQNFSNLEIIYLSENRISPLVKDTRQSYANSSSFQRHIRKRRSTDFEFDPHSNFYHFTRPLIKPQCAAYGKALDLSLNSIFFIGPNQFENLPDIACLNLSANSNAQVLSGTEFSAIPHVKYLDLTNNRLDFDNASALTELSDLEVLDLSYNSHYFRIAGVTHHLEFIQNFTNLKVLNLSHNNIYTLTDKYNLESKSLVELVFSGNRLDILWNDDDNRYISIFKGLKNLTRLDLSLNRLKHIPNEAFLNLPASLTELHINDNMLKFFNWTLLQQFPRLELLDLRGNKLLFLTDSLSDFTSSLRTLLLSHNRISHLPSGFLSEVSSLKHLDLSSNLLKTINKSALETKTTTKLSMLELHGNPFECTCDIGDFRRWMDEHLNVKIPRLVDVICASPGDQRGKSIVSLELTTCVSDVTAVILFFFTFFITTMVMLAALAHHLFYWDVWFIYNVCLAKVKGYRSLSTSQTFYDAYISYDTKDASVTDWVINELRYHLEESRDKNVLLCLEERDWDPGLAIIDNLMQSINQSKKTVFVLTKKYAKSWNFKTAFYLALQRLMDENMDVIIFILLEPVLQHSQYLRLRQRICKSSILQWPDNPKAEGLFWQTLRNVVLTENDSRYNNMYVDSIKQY
- test_protocol: HEK293-Blue-hTLR-8 cells assay (SEAP reporter, R848 stimulation)
- measurement_setup: HEK293-Blue-hTLR8 cells, R848, 20 hrs; read-out: HEK/hTLR8 IC50
Can you tell me log10(IC50) for the items I'm about to list?
All values: log10 IC50 [nM].

Req: Data request, read-out log10(IC50), for C[C@@H]1CN(c2ccc(C#N)n3ncc(F)c23)C[C@H](CN2CCN(c3ccc([C@@H]4CNCCO4)c(F)c3)CC2)O1 [Example 184]
Resp: 1.15

Req: Data request, read-out log10(IC50), for C[C@@H]1CN(c2ccc(C#N)c3ncccc23)C[C@H](CN2CCN(c3ccnc(N4CCNCC4)n3)CC2)O1 [Example 15]
Resp: 0.48

Req: Data request, read-out log10(IC50), for CO[C@H]1CN(c2nc(C)cc(N3CCN(C[C@H]4CN(c5ccc(C#N)c6nccnc56)C[C@@H](C)O4)CC3)n2)C[C@@H]1N [Example 106]
Resp: 0.00

Req: Data request, read-out log10(IC50), for C[C@@H]1CN(c2ccc(C#N)c3ncccc23)C[C@H](CN2CCN(c3cccc(N4CCC(N)CC4)n3)CC2)O1 [Example 36]
Resp: 1.04

Req: Data request, read-out log10(IC50), for C[C@@H]1CN(c2ccc(C#N)n3ncc(F)c23)C[C@H](CN2CCN(c3ccc(N4CC5(CN(C)C5)C4)nc3)CC2)O1 [Example 170]
Resp: 1.11

Req: Data request, read-out log10(IC50), for C[C@@H]1CN(c2ccc(C#N)c3ncccc23)C[C@H](CN2CCN(c3ccnc(N4CCC(N)CC4)n3)CC2)O1 [Example 27]
Resp: 0.48

Req: Data request, read-out log10(IC50), for C[C@@H]1CN(c2ccc(C#N)n3ncc(F)c23)C[C@H](CN2CCN(c3ccc(N4C[C@H]5NCCO[C@@H]5C4)nc3)CC2)O1 [Example 168]
Resp: 1.76

Req: Data request, read-out log10(IC50), for CO[C@H]1CN(c2ccnc(N3CCN(C[C@H]4CN(c5ccc(C#N)c6ncccc56)C[C@@H](C)O4)CC3)n2)C[C@@H]1N [Example 97]
Resp: 0.00

Req: Data request, read-out log10(IC50), for Cc1cc(N2CCN(C[C@H]3CN(c4ccc(C#N)c5ncccc45)C[C@@H](C)O3)CC2)nc(N2CC[C@@H](F)C(N)C2)n1 (single isomer, unassigned) [Example 84]
Resp: 0.85

Req: Data request, read-out log10(IC50), for COc1cnc(N2CCNCC2)nc1N1CCN(C[C@H]2CN(c3ccc(C#N)c4ncccc34)C[C@@H](C)O2)CC1 [Example 48]
Resp: 0.60

Req: Data request, read-out log10(IC50), for Cc1cc(N2CCN(C[C@H]3CN(c4ccc(C#N)c5ncccc45)C[C@@H](C)O3)CC2)nc(N2CC(N)C(F)(F)C2)n1 (stereo partly shown) [Example 63]
Resp: 1.11

Req: Data request, read-out log10(IC50), for C[C@@H]1CN(c2ccc(C#N)n3nccc23)C[C@H](CN2CC(c3ccc(N4CC(C)(N)C4)cc3)C2)O1 [Example 163]
Resp: 1.83

Req: Data request, read-out log10(IC50), for C[C@@H]1CN(c2ccc(C#N)c3ncccc23)C[C@H](CN2CCN(c3cnc(N4CCNCC4)nc3)CC2)O1 [Example 12]
Resp: 0.48
